# Study system: T1, full-length human SIRPαV1 N→E on Expi-CHO cells (human, UniProt P78324 31-504)
# T1 construct: the entry already carries the change (TKRN to TKRE)
# T1 sequence (P78324 31-504 N100E): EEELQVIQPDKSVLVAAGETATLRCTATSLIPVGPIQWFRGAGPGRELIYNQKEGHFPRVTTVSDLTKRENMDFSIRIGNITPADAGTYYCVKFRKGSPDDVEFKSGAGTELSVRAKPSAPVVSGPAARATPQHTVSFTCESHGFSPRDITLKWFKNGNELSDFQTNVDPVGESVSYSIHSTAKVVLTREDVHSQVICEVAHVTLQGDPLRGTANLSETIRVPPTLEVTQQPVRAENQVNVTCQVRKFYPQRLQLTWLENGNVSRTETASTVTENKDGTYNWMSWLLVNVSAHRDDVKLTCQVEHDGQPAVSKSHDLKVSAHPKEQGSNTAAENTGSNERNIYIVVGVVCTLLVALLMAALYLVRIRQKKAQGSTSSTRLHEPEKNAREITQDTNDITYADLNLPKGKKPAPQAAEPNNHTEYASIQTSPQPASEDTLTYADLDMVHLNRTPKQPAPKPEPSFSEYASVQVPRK
# Method notes: flow cytometry, Expi-CHO cells
# Description: Expi-CHO parental cells are transduced with lentiviruses containing either full-length wild-type human SIRPαV1 allele (NP_542970.1) or full-length human SIRPαV1 with amino acid point mutations (Table 56) and sorted to achieve matching expression levels. […] Stained cells are washed, fixed, and analyzed by flow cytometry. Median fluorescent intensity is determined and used as a measure of antibody binding.
Measured metric: EC50 (nM)
Report the value in nM with no unit label.

Ask | I have this binder here, Antibody C (antibody, human IgG1, kappa, L234A L235A, V domains shown) VH: EVQLVESGGGLVQPGGSLRLSCAASGFTFSSYDMHWVRQATGKGLEWVSVIGIAGDTYYPGSVKGRFTISRENAKNSLYLQMNSLRVGDTAVYYCARGGSWDDAFDIWGQGTMVTVSS VL: DIQMTQSPSSLSASIGDKVTITCRASQDINNYLAWFQQKPGKAPKSLIYTASSLQSGVPSKFSGSGSGTDFTLTISSLQPEDFATYYCQQYVSYPYTFGQGTKLEIKR , and I need its recorded EC50.
Reply | 0.3
